Consider the following compounds; for each one, report its T/C.
Tested on: L1210 leukemia ip in BDF1 mice, survival T/C
experiment-description: NCI In Vivo Anticancer Drug Screen. Data for tumor model L1210 Leukemia (intraperitoneal) in B6D2F1 (BDF1) mice
reported-conditions: endpoint: mean survival time; dose: 400.0 mg/kg/injection; schedule: Q01DX009 (ip); vehicle: Klucel (hydroxypropylcellulose) (HPC); higher = longer survival
Inconclusive results and toxic doses are left out.

// known answers, use as guide
O=S(=O)(O)CCN1CCN(CCS(=O)(=O)O)CC1
101 % of control
O=[N+]([O-])c1ccc(OCCCOc2ccccc2)cc1
98 % of control
CCOc1ccc(NC(=O)Oc2ccc(SC)c(C)c2)cc1
96 % of control
CCCCCCCCCCCCNC(=O)Nc1ccc(C)cc1C
96 % of control
O=C(Nc1ccccc1C(F)(F)F)N(CCO)C1CCCCC1
101 % of control

Below is a list of compounds. For each, state its recorded T/C.
1. CCCCC1CN2CCc3cc(OC)c(OC)cc3C2CC1=O (stereo not given)
2. CN(C)c1ccc(/C=C\c2cc(=O)[nH]c3ccccc23)cc1
3. COc1ccc(C(=O)c2cnc(C)n2Cc2ccccc2)cc1
4. O=C(Nc1ccc(Cl)c(Cl)c1)Nc1cccc2nsnc12
5. O=C1c2cccc3cccc(c23)C(=O)N1CC1CCCO1 (stereo not given)

1: 97 % of control; 2: 97 % of control; 3: 114 % of control; 4: 92 % of control; 5: 87 % of control

====

Consider the following compounds; for each one, report its T/C.
Tested on: L1210 leukemia ip in BDF1 mice, survival T/C
experiment-description: NCI In Vivo Anticancer Drug Screen. Data for tumor model L1210 Leukemia (intraperitoneal) in B6D2F1 (BDF1) mice
reported-conditions: endpoint: mean survival time; dose: 12.5 mg/kg/injection; schedule: Q04DX003 (ip); vehicle: saline; higher = longer survival
Inconclusive results and toxic doses are left out.

// known answers, use as guide
CCCCOCCC1CCNCC1
96 % of control
C[n+]1c2ccccc2cc2ccc(N=[N+]=[N-])cc21
100 % of control
COc1ccccc1C1N(C)CCCN1C
92 % of control
[Cl][Cu][Cl]
107 % of control

What does the data say about its T/C? Entry: CS/C(N)=N/N 100 % of control

====

Consider the following molecules; for each one, report its T/C.
Test system: L1210 leukemia ip in BDF1 mice, survival T/C
experiment-description: NCI In Vivo Anticancer Drug Screen. Data for tumor model L1210 Leukemia (intraperitoneal) in B6D2F1 (BDF1) mice
reported-conditions: endpoint: mean survival time; dose: 100.0 mg/kg/injection; schedule: Q04DX003 (ip); vehicle: saline with Tween-80; higher = longer survival
Inconclusive results and toxic doses are left out. Peptide text beside a SMILES is read from it. * marks the point of attachment. ONp = O=[N+]([O-])c1ccc(O*)cc1; Cbz = O=C(OCc1ccccc1)*

// known answers, use as guide
O=C1CCCCCC1c1ccccc1 (centres undefined)
98 % of control
CCOC(c1ccccc1)(c1ccccc1)c1ccccc1
101 % of control

Below is a list of molecules. For each, state its recorded T/C.
1. Cc1cccnc1C(=O)O
2. CC1CCCCC12OCCO2 (centres undefined)
3. [O-][N+](=Nc1cccc(Cl)c1)c1cccc(Cl)c1
4. CCCCCCCC(=O)Nc1cccc(O)c1
5. CCCC(O)Cc1c[nH]c(=O)[nH]c1=O (centres undefined)
6. CCOc1ccc(OCC)c(NC(=O)c2ccccc2)c1
7. O=I(=O)c1ccccc1
8. CCOP(OCC)Oc1ccccc1

1: 95 % of control; 2: 101 % of control; 3: 98 % of control; 4: 96 % of control; 5: 95 % of control; 6: 94 % of control; 7: 96 % of control; 8: 92 % of control

Below is a list of molecules. For each, state its recorded T/C.
1. CN(C)c1ccc(NC(=O)Nc2cccc(Cl)c2)cc1
2. CCCCCCCCCCCCOc1ccccc1
3. CCOC(=O)c1c(Cl)c(Cl)c(Cl)c(Cl)c1C(=O)OCC
4. O=C(CNC(=O)OCc1ccccc1)NCC(=O)Oc1ccc([N+](=O)[O-])cc1 (Cbz-Gly-Gly-ONp)

1: 94 % of control; 2: 88 % of control; 3: 100 % of control; 4: 92 % of control
